Would you mind telling me the reported TGI of each entry?
- System: SK-MEL-2 melanoma
- procedure.details: NCI tumour cell line growth inhibition, 48 h

Inquiry: # TGI lookup, item O=C1c2ccccc2C(=O)c2c(O)ccc(O)c21
Reply text: > 100 µM

Inquiry: Follow-up entry: C=CCCCCCCCCCOC1C=CC(OC(C)=O)C(COC(C)=O)O1 (stereo not given)
Reply text: > 100 µM

Inquiry: Follow-up entry: O=C(c1ccc(Cl)cc1)c1ccc(OCCSCCCCCCCCCCSCCOc2ccc(C(=O)c3ccc(Cl)cc3)cc2)cc1
Reply text: > 100 µM

Inquiry: Follow-up entry: CC(=O)O[C@H]1C[C@H]2C(=S)Nc3ccccc3C(=S)N2C1
Reply text: > 100 µM

Inquiry: Follow-up entry: CC(C)Nc1ncc2cc(Oc3ccc(F)cc3F)c(=O)n(C)c2n1
Reply text: > 25 µM
